Tested on: E. coli TESEC Mtb DapB
Test: growth (OD600 after 10 h); higher = more growth (less inhibition)
Conditions: arabinose induction (level): High; compound 0.1 mM; raw OD600 reference: median of DMSO wells […], cell-free background 0.041
Counter-ions that a name gives are not always drawn.
Binary call on growth: True from 0.2 upward, False beneath that.

| compound | tested-on | label |
| --- | --- | --- |
| Cc1nnc(SCC2=C(C(=O)O)N3C(=O)[C@@H](NC(=O)Cn4cnnn4)[C@H]3SC2)s1 [Cefazolin sodium salt] | E. coli TESEC Mtb DapB | False |
| Cc1ncc(CO)c(CO)c1O [Pyridoxine hydrochloride] | E. coli TESEC Mtb DapB | True |
| NS(=O)(=O)c1cc2c(cc1C(F)(F)F)NC(Cc1ccccc1)NS2(=O)=O (stereo unspecified) [Bendroflumethiazide] | E. coli TESEC Mtb DapB | True |
| COc1cc(C)c(/C=C/C(C)=C/C=C/C(C)=C/C(=O)O)c(C)c1C | E. coli TESEC Mtb DapB | False |
| CCCCNc1cc(C(=O)O)cc(S(N)(=O)=O)c1Oc1ccccc1 [Bumetanide] | E. coli TESEC Mtb DapB | True |
| O=c1[nH]cc(F)c(=O)[nH]1 | E. coli TESEC Mtb DapB | False |
| CC(=O)O[C@H]1C(=O)[C@@]2(C)[C@H]([C@H](OC(=O)c3ccccc3)[C@]3(O)C[C@H](OC(=O)[C@H](O)[C@@H](NC(=O)c4ccccc4)c4ccccc4)C(C)=C1C3(C)C)[C@]1(OC(C)=O)CO[C@@H]1C[C@@H]2O | E. coli TESEC Mtb DapB | True |
| CN1CCCC(n2nc(Cc3ccc(Cl)cc3)c3ccccc3c2=O)CC1 (stereo unspecified) [Azelastine HCl] | E. coli TESEC Mtb DapB | False |

---

System: E. coli TESEC Mtb Alr
Test: growth (OD600 after 10 h); higher = more growth (less inhibition)
Settings: arabinose 100 nM; compound 0.1 mM; raw OD600 reference: median of DMSO wells 0.413, cell-free background 0.052
Where a name gives a salt, the structure may show the parent alone.
# Lookup of reported growth keyed by entry

| compound | growth |
| --- | --- |
| CN1CCCN=C1/C=C/c1cccs1 [Pyrantel tartrate] | 0.409 |
| CC(CN(C)C)CN1c2ccccc2Sc2ccccc21 (stereo not given) [Trimeprazine tartrate] | 0.392 |
| CNC[C@H](O)[C@@H](O)[C@H](O)[C@H](O)CO | 0.404 |
| Cc1nc2n(c(=O)c1CCN1CCC(c3noc4cc(F)ccc34)CC1)CCCC2 | 0.397 |
| CCCC(=O)Nc1ccc(OCC(O)CNC(C)C)c(C(C)=O)c1 (stereo not given) [Acebutolol hydrochloride] | 0.411 |

---

# Lookup of reported growth keyed by entry
System: E. coli TESEC Mtb Alr
Test: growth (OD600 after 10 h); higher = more growth (less inhibition)
Settings: arabinose 10000000 nM; compound 0.1 mM; raw OD600 reference: median of DMSO wells 0.146, cell-free background 0.041
Structures can show the parent of a compound that is named as a salt.
outcome-measure: growth

| compound | tested-on | outcome-measure | observed |
| --- | --- | --- | --- |
| CC(C(=O)O)c1ccc(C(=O)c2ccccc2)s1 (stereo not given) | E. coli TESEC Mtb Alr | growth | 0.143 |
| CN1CCC(=C2c3ccccc3CCc3cccnc32)CC1 [Azatadine maleate] | E. coli TESEC Mtb Alr | growth | 0.132 |
| Cc1cc(=O)n(-c2ccccc2)n1C [Antipyrine] | E. coli TESEC Mtb Alr | growth | 0.144 |
| C#C[C@]1(O)CC[C@H]2[C@@H]3CCC4=CCCC[C@@H]4[C@H]3CC[C@@]21C | E. coli TESEC Mtb Alr | growth | 0.15 |
| COc1nc(C)nc(Cl)c1NC1=NCCN1 | E. coli TESEC Mtb Alr | growth | 0.133 |
| C[C@@H](O)[C@H]1C(=O)N2C(C(=O)O)=C(SCCNC=N)C[C@H]12 | E. coli TESEC Mtb Alr | growth | 0.136 |
| CC(=O)OCC(=O)[C@@]1(O)CC[C@H]2[C@@H]3CCC4=CC(=O)CC[C@]4(C)[C@@]3(F)[C@@H](O)C[C@@]21C [Fludrocortisone acetate] | E. coli TESEC Mtb Alr | growth | 0.128 |
| C[C@H](CCC(=O)O)[C@H]1CC[C@H]2[C@@H]3CC[C@@H]4C[C@H](O)CC[C@]4(C)[C@H]3CC[C@]12C | E. coli TESEC Mtb Alr | growth | 0.173 |
| O=C(O)CCCC[C@@H]1SC[C@@H]2NC(=O)N[C@@H]21 | E. coli TESEC Mtb Alr | growth | 0.145 |
| Nc1nc(O)c2ncn(CCC(CO)CO)c2n1 | E. coli TESEC Mtb Alr | growth | 0.167 |

---

Test system: E. coli TESEC Mtb Alr
Experiment: growth (OD600 after 10 h); higher = more growth (less inhibition)
Conditions: arabinose 10000000 nM; compound 0.1 mM; raw OD600 reference: median of DMSO wells […], cell-free background 0.052
Structures can show the parent of a compound that is named as a salt.

| molecule | growth |
| --- | --- |
| CC(C)[C@H]1CC[C@H](C(=O)N[C@H](Cc2ccccc2)C(=O)O)CC1 [Nateglinide] | 0.284 |
| Nc1nnc(-c2cccc(Cl)c2Cl)c(N)n1 [Lamotrigine] | 0.386 |
| CCC1(C)CC(=O)NC1=O (stereo unspecified) [Ethosuximide] | 0.368 |
| Nc1ccc(O)c(C(=O)O)c1 [Mesalamine] | 0.363 |
| CCOc1ccc2nc(S(N)(=O)=O)sc2c1 [Ethoxzolamide] | 0.214 |
| CC(C)(C)NC[C@H](O)COc1ccccc1C1CCCC1 [Penbutolol sulfate] | 0.261 |
| O=C(O)Cc1sc(-c2ccccc2)nc1-c1ccc(Cl)cc1 [Fentiazac] | 0.14 |
| NC[C@H]1O[C@H](O[C@H]2[C@H](O)[C@@H](O[C@H]3O[C@H](CO)[C@@H](O)[C@H](N)[C@H]3O)[C@H](N)C[C@@H]2N)[C@H](N)C[C@@H]1O [Tobramycin] | 0.0502 |
| CC[N+](CC)(CC(=O)Nc1c(C)cccc1C)Cc1ccccc1 [Denatonium benzoate] | 0.338 |
| OC(CCN1CCCCC1)(c1ccccc1)C1CCCCC1 (stereo unspecified) [Trihexyphenidyl-D,L Hydrochloride] | 0.324 |
| CCOC(=O)C1=C(C)NC(C)=C(C(=O)OCC)C1c1ccccc1/C=C/C(=O)OC(C)(C)C [Lacidipine] | 0.322 |

---

Tested on: E. coli TESEC Alr+ wild-type control
Assay: growth (OD600 after 10 h); higher = more growth (less inhibition)
Conditions: compound 0.1 mM; raw OD600 reference: median of DMSO wells 0.241, cell-free background 0.041
Where a name gives a salt, the structure may show the parent alone.
Binary call on growth: y from 0.2 upward, n beneath that.

| compound | label |
| --- | --- |
| CCOC(=O)C(C)(C)Oc1ccc(Cl)cc1 [Clofibrate] | y |
| CN(C)CC/C=C1\c2ccccc2CSc2ccccc21 [Dosulepin hydrochloride] | n |
| NC(=O)c1cc[n+](CC2=C(C(=O)[O-])N3C(=O)[C@@H](NC(=O)[C@@H](c4ccccc4)S(=O)(=O)O)[C@H]3SC2)cc1 [Cefsulodin sodium salt] | y |
| CC(C(=O)O)c1ccc2c(c1)Cc1cccnc1O2 (stereo not given) | y |
| CNC1(C)C2CCC(C2)C1(C)C (stereo not given) [Mecamylamine hydrochloride] | y |

---

Tested on: E. coli TESEC Mtb DapB
Assay: growth (OD600 after 10 h); higher = more growth (less inhibition)
Conditions: arabinose induction (level): Low; compound 0.1 mM; raw OD600 reference: median of DMSO wells 0.227, cell-free background 0.041
Structures can show the parent of a compound that is named as a salt.
outcome-measure: growth

| molecule | observed |
| --- | --- |
| O=C(CCNNC(=O)c1ccncc1)NCc1ccccc1 [Nialamide] | 0.249 |
| CN1CCC(=C2c3ccccc3Sc3ccccc32)CC1 [Pimethixene maleate] | 0.223 |
| CN1CCN(CCCN2c3ccccc3Sc3ccc(C(F)(F)F)cc32)CC1 [Trifluoperazine dihydrochloride] | 0.171 |

---

System: E. coli TESEC Mtb Alr
Assay: growth (OD600 after 10 h); higher = more growth (less inhibition)
Conditions: arabinose 10000000 nM; compound 0.1 mM; raw OD600 reference: median of DMSO wells 0.146, cell-free background 0.041
Structures can show the parent of a compound that is named as a salt.
outcome-measure: growth

| molecule | tested-on | outcome-measure | observed |
| --- | --- | --- | --- |
| Cc1c(Cl)cccc1Nc1ccccc1C(=O)O | E. coli TESEC Mtb Alr | growth | 0.0598 |
| CC(C(O)c1ccc(O)cc1)N1CCC(Cc2ccccc2)CC1 (stereo unspecified) [Ifenprodil tartrate] | E. coli TESEC Mtb Alr | growth | 0.172 |
| CC(C(=O)O)c1ccc2c(c1)Cc1cccnc1O2 (stereo unspecified) | E. coli TESEC Mtb Alr | growth | 0.133 |
| CCOC(=O)[C@H](CCc1ccccc1)N[C@@H](C)C(=O)N1[C@H](C(=O)O)C[C@@H]2CCC[C@@H]21 | E. coli TESEC Mtb Alr | growth | 0.14 |
| CC(=O)N(CC(O)CN(C(C)=O)c1c(I)c(C(=O)NCC(O)CO)c(I)c(C(=O)NCC(O)CO)c1I)c1c(I)c(C(=O)NCC(O)CO)c(I)c(C(=O)NCC(O)CO)c1I (stereo unspecified) | E. coli TESEC Mtb Alr | growth | 0.142 |
| NC(=O)C(c1ccccc1)(c1ccccc1)[C@@H]1CCN(CCc2ccc3c(c2)CCO3)C1 [Darifenacin hydrobromide] | E. coli TESEC Mtb Alr | growth | 0.146 |
| O=c1[nH]c(=O)n([C@H]2C[C@H](O)[C@@H](CO)O2)cc1C(F)(F)F | E. coli TESEC Mtb Alr | growth | 0.135 |
| CCCNC(C)C(=O)Nc1ccccc1C (stereo unspecified) [Prilocaine hydrochloride] | E. coli TESEC Mtb Alr | growth | 0.136 |
| COCC1=C(C(=O)OC(C)OC(=O)OC(C)C)N2C(=O)[C@@H](NC(=O)/C(=N\OC)c3csc(N)n3)[C@H]2SC1 (stereo partly specified) | E. coli TESEC Mtb Alr | growth | 0.165 |
| COCCCOc1ccnc(C[S+]([O-])c2nc3ccccc3[nH]2)c1C (stereo unspecified) [Rabeprazole Sodium salt] | E. coli TESEC Mtb Alr | growth | 0.134 |
| CS(=O)(=O)c1ccc([C@@H](O)[C@@H](CO)NC(=O)C(Cl)Cl)cc1 | E. coli TESEC Mtb Alr | growth | 0.055 |
| O=C(O)[C@H]1/C(=C/CO)O[C@@H]2CC(=O)N21 [Clavulanate potassium salt] | E. coli TESEC Mtb Alr | growth | 0.0991 |
| CCC(=O)OCC(=O)[C@@]1(OC(=O)CC)[C@H](C)C[C@H]2[C@H]3[C@H]([C@@H](O)C[C@@]21C)[C@@]1(C)C=CC(=O)C=C1C[C@H]3Cl [Alclometasone dipropionate] | E. coli TESEC Mtb Alr | growth | 0.217 |
| O=C(Oc1cccc2cccnc12)c1ccccc1 | E. coli TESEC Mtb Alr | growth | 0.14 |
| CC(=O)[C@H]1CC[C@H]2[C@@H]3CCC4=CC(=O)CC[C@]4(C)[C@H]3CC[C@]12C | E. coli TESEC Mtb Alr | growth | 0.15 |
| CCN(CC)CCc1nc(-c2ccccc2)no1 [Oxalamine citrate salt] | E. coli TESEC Mtb Alr | growth | 0.135 |
| CN(C)CCOC(C)(c1ccccc1)c1ccccn1 (stereo unspecified) [Doxylamine succinate] | E. coli TESEC Mtb Alr | growth | 0.141 |
| Nc1ccc(S(=O)(=O)Nc2cnc3ccccc3n2)cc1 [Sulfaquinoxaline sodium salt] | E. coli TESEC Mtb Alr | growth | 0.137 |
| COc1ccc(CC2c3cc(OC)c(OC)cc3CC[N+]2(C)CCC(=O)OCCCCCOC(=O)CC[N+]2(C)CCc3cc(OC)c(OC)cc3C2Cc2ccc(OC)c(OC)c2)cc1OC (stereo unspecified) [Atracurium besylate] | E. coli TESEC Mtb Alr | growth | 0.137 |
| O=C(c1ccc(OCCN2CCCCC2)cc1)c1c(-c2ccc(O)cc2)sc2cc(O)ccc12 [Raloxifene hydrochloride] | E. coli TESEC Mtb Alr | growth | 0.0448 |
| CCN(CC)CCNC(=O)c1cc(Br)c(N)cc1OC [Bromopride] | E. coli TESEC Mtb Alr | growth | 0.156 |
| COc1cnc(NS(=O)(=O)c2ccc(N)cc2)nc1 | E. coli TESEC Mtb Alr | growth | 0.143 |
| O=C1NCCN1CCN1CCC(c2cn(-c3ccc(F)cc3)c3ccc(Cl)cc23)CC1 | E. coli TESEC Mtb Alr | growth | 0.0443 |
| c1ccc([C@H]2CN3CCSC3=N2)cc1 [Levamisole hydrochloride] | E. coli TESEC Mtb Alr | growth | 0.142 |
| NCCCC(O)(P(=O)(O)O)P(=O)(O)O [Alendronate sodium] | E. coli TESEC Mtb Alr | growth | 0.162 |
| COc1cc(NS(=O)(=O)c2ccc(N)cc2)nc(OC)n1 | E. coli TESEC Mtb Alr | growth | 0.139 |
